Numbers sourced from patent US8653087B2.

biological target: B-Raf (V600E)-kinase (Homo sapiens (Human), UniProt P15056, V600E); test: Kinase test B-RAF (V600E); type: biochemical; conditions: B-RAF (V600E) kinase test, 250 μM ATP
Sequence (P15056 whole entry V600E): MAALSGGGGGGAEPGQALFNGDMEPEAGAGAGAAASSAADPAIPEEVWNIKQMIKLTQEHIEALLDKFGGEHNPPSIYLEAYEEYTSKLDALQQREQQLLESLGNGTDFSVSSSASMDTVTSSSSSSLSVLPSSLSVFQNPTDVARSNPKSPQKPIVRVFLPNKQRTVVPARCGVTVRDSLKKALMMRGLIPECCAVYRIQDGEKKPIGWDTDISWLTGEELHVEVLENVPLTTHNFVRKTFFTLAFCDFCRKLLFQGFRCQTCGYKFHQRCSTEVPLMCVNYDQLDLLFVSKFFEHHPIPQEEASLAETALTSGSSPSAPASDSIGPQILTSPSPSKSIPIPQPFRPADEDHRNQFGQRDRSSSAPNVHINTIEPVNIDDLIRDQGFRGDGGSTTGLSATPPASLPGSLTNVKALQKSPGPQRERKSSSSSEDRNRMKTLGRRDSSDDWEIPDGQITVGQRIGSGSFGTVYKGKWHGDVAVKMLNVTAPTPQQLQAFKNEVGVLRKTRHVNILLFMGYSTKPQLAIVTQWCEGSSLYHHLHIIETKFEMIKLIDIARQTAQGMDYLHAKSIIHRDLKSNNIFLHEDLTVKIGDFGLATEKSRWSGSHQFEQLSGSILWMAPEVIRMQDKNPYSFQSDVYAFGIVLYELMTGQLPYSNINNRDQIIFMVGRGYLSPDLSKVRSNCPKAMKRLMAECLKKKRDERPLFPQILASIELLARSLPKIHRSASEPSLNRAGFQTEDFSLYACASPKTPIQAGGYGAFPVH
Exercise: state measured pIC50 for each of the molecules provided.
Convention used: pIC50 is expressed as -log10 of the molar concentration.

Consider Cc1ccc(NC(=O)c2cccc(C(C)(C)C#N)c2)cc1Nc1ncnc2cnc(N3CCN(C)CC3)nc12 . Its measured pIC50 is 9.00

Consider COc1ccc(C(=O)Nc2cc(C(C)(C)C)on2)cc1Nc1ncnc2cnc(N3CCCC3)nc12 . Its measured pIC50 is 7.70

Consider Cc1ccc(C(=O)Nc2ccc(C#N)c(C(F)(F)F)c2)cc1Nc1ncnc2cnc(N3CCCN(C)CC3)nc12 . Its measured pIC50 is 8.52

Consider Cc1ccc(C(=O)Nc2cc(N3CCCN(C)CC3)cc(C(F)(F)F)c2)cc1Nc1ncnc2cnc(N3CC[C@H](F)C3)nc12 . Its measured pIC50 is 9.00

Consider Cc1ccc(C(=O)Nc2cccc(S(=O)(=O)N(C)C)c2)cc1Nc1ncnc2cnc(N3CCN(C)CC3)nc12 . Its measured pIC50 is 8.15

Consider COCCN1CCN(c2ncc3ncnc(Nc4cc(C(=O)Nc5cc(C(C)(C)C)on5)ccc4F)c3n2)CC1 . Its measured pIC50 is 8.40

Consider Cc1ccc(C(=O)Nc2ccc(N(C)CCN(C)C)c(C(F)(F)F)c2)cc1Nc1ncnc2cnc(N3CCOCC3)nc12 . Its measured pIC50 is 8.52

Consider Cc1ccc(C(=O)Nc2cc(CN3CCCC3)cc(C(F)(F)F)c2)cc1Nc1ncnc2cnc(N3CCC(F)(F)CC3)nc12 . Its measured pIC50 is 8.40

Consider CN(CCN1CCCC1)c1ncc2ncnc(Nc3cc(C(=O)Nc4cc(C(C)(C)C)on4)ccc3F)c2n1 . Its measured pIC50 is 7.85

Consider Cc1ccc(C(=O)Nc2cc(C(C)(C)C)on2)cc1Nc1ncnc2cnc(N3CCC(N4CCCCC4)CC3)nc12 . Its measured pIC50 is 8.52

Consider Cc1ccc(C(=O)Nc2cccc(N(C)C)c2)cc1Nc1ncnc2cnc(N3CCOCC3)nc12 . Its measured pIC50 is 8.40

Consider COc1ccc(C(=O)Nc2ccc(OC)c(C(F)(F)F)c2)cc1Nc1ncnc2cnc(N(C)C)nc12 . Its measured pIC50 is 8.70

Consider Cc1ccc(C(=O)Nc2cc(C(C)(C)C)n[nH]2)cc1Nc1ncnc2cnc(N3CCN(CC(C)C)CC3)nc12 . Its measured pIC50 is 7.89

Consider COc1ccc(NC(=O)c2ccc(Cl)c(Nc3ncnc4cnc(N5CCCCCC5)nc34)c2)cc1C(F)(F)F . Its measured pIC50 is 8.15

Consider Cc1ccc(C(=O)Nc2cc(N(C)CCN(C)C)cc(C(F)(F)F)c2)cc1Nc1ncnc2cnc(NCc3ccccn3)nc12 . Its measured pIC50 is 8.70

Consider Cc1ccc(C(=O)Nc2ccc(C(F)(F)F)cc2)cc1Nc1ncnc2c(N)nc(N3CCCN(C)CC3)nc12 . Its measured pIC50 is 8.05

Consider Cc1ccc(C(=O)Nc2cc(C(C)(C)C)n[nH]2)cc1Nc1ncnc2c(N)nc(N3C[C@H]4C[C@@H]3CN4C)nc12 . Its measured pIC50 is 8.40

Consider Cc1ccc(NC(=O)c2cccc(C(F)(F)F)c2)cc1Nc1ncnc2c(N)nc(N3CCCN(c4ncccn4)CC3)nc12 . Its measured pIC50 is 7.35

Consider Cc1ccc(C(=O)Nc2nnc(C(F)(F)F)s2)cc1Nc1ncnc2cnc(N(C)CCN(C)C)nc12 . Its measured pIC50 is 5.00

Consider CC1=Nc2ccc(NC(=O)c3ccc(C)c(Nc4ncnc5cnc(N6CCC(CN7CCCC7)CC6)nc45)c3)cc2C1(C)C . Its measured pIC50 is 8.22

Consider Cc1ccc(C(=O)NCc2cccc(C(F)(F)F)c2)cc1Nc1ncnc2cnc(N3CCOCC3)nc12 . Its measured pIC50 is 7.26

Consider COc1ccc(C(=O)Nc2cccc(C(F)(F)F)c2)cc1Nc1ncnc2c(N)nc(N3CCN(C)CC3)nc12 . Its measured pIC50 is 7.46

Consider CC(C)(C)c1cc(NC(=O)c2ccc(F)c(Nc3ncnc4cnc(NCCN5CCOCC5)nc34)c2)no1 . Its measured pIC50 is 9.00

Consider COc1ccc(NC(=O)c2ccc(C)c(Nc3ncnc4c(N)nc(N5CCN(C)CC5)nc34)c2)cc1C(F)(F)F . Its measured pIC50 is 7.59

Consider Cc1ccc(NC(=O)c2cccc(C(F)(F)F)c2)cc1Nc1ncnc2c(N)nc(N3CCN(C)CC3)nc12 . Its measured pIC50 is 7.59

Consider COCCN(C)c1ncc2ncnc(Nc3cc(C(=O)Nc4ccc(OC)c(C(F)(F)F)c4)ccc3C(F)(F)F)c2n1 . Its measured pIC50 is 7.19

Consider COc1ccc(NC(=O)c2ccc(C)c(Nc3ncnc4cnc(N5CCN(CC6CCN(C)CC6)CC5)nc34)c2)cc1C(F)(F)F . Its measured pIC50 is 9.00
